Values from PubChem BioAssay (NCI)

Kindly state TGI for each of the entries shown.
System: MDA-N
Assay: NCI tumour cell line growth inhibition, 48 h

{"Compound": "CCOP1(=O)CC(C)=C(Cl)C(OC)C1 (stereo unspecified)", "TGI": "> 100 µM"}
{"Compound": "C[C@]12CC[C@H]3[C@@H](CC=C4C[C@@H](O)CC[C@@]43C)[C@@H]1C/C(=C\\c1cccnc1)[C@@H]2O", "TGI": "> 100 µM"}
{"Compound": "O=[N+]([O-])c1ccccc1N=Nc1c(O)[nH]c2c(Cl)cccc12", "TGI": "> 100 µM"}
{"Compound": "CC1OC(OC2C(O)CC(OC3C(O)CC(OC4CCC5(C)C(CCC6C5CCC5(C)C(C7=CC(=O)OC7)C(O)CC65O)C4)OC3C)OC2C)CC(O)C1O (stereo unspecified)", "TGI": "1.11 µM"}
{"Compound": "O=C(/C=C/c1ccc(-c2ccccc2)cc1)NCc1ccc(C(=O)NCCc2ccccc2)cc1", "TGI": "> 100 µM"}
{"Compound": "C[N+]1(C)CCCC(C#N)(c2ccccc2)CC1 (stereo unspecified)", "TGI": "> 100 µM"}

Working through the 3 compounds below one at a time, give TGI for each.
1. Cc1nn2c(=O)c([N+](=O)[O-])c(/C=C/c3ccc(F)cc3)nc2s1
2. O=c1c(-c2nc3ccccc3c3ccccc3c2=O)nc2ccccc2c2ccccc12
3. CN(C(=O)Cc1ccccc1)n1cn[n+](CC(=O)OC(C)(C)C)c1

1. 15.8 µM
2. 69 µM
3. > 10 µM

Respectfully, I request TGI for each entry included below.
1. COc1ccc(-c2nc3ccccc3c(=O)[nH]2)cc1
2. CN(C)S(=O)(=O)c1ccc2[nH]c(O)c(C3=Nc4ccccc4C3=O)c2c1

1: > 100 µM; 2: > 100 µM
